Tested on: L. donovani-infected THP-1 macrophages, intracellular amastigote imaging
Test: antileishmanial activity in infected THP-1 macrophages – imaging, THP-1 host macrophages, host toxicity (AID 1159564)
Details: measured here: THP-1 host cell toxicity
# key: entry, value: log10 of IC50
In our notation, the value equals log10 of IC50 in µM.

// known answers, use as guide
CC(c1cc(Cl)cc(Cl)c1)N(C)c1ncc2c(N)nc(N)nc2n1 (stereo not given)    1.51
CCn1c(-c2nonc2N)nc2c([C@@H](C)O)ncc(O[C@H](CN)c3ccccc3)c21    0.51
Oc1c(-c2n[nH]c(Cc3ccc(F)cc3)n2)ncc2cccnc12    1.30
Cc1cc(C)n(-c2nc(NC(C)C)nc(NC(C)(C)C)n2)n1    0.80

Now let's try a different one.
Query: Reported log10 of IC50 for CCN(CC)c1nc(N(C)C)nc2c1CN(Cc1ccccc1)CC2 : what is it?
Response: 1.60

###

# key: entry, value: IC50
System: L. donovani-infected THP-1 macrophages, intracellular amastigote imaging
Assay: antileishmanial activity in infected THP-1 macrophages – imaging, THP-1 host macrophages, host toxicity (AID 1159564)
Conditions: measured here: THP-1 host cell toxicity
Number in µM, nothing else.

COc1cccc(CN(C)Cc2nc(N)c3c(C)c(C)sc3n2)c1    32

Query: Give IC50 (L. donovani-infected THP-1 macrophages, intracellular amastigote imaging) of the following molecule: CNc1nc(C)nc(N2CCc3cc(C(=O)NCc4ccc(-c5nccn5C)cc4Cl)ccc32)n1
Response: 25

Query: Give IC50 (L. donovani-infected THP-1 macrophages, intracellular amastigote imaging) of the following molecule: O=C(Nc1n[nH]c(-c2ccccn2)n1)C1CC1c1ccccc1 (stereo not given)
Response: 20

Query: Give IC50 (L. donovani-infected THP-1 macrophages, intracellular amastigote imaging) of the following molecule: OCC1CCCCN1c1cc(-c2ccccn2)nc(Nc2ccccc2)n1 (stereo not given)
Response: 20

Query: Give IC50 (L. donovani-infected THP-1 macrophages, intracellular amastigote imaging) of the following molecule: Cc1ccc(Nc2nc(C3CCCN3Cc3ccn[nH]3)cs2)nc1 (stereo not given)
Response: 25

###

Tested on: L. donovani-infected THP-1 macrophages, intracellular amastigote imaging
Assay: antileishmanial activity in infected THP-1 macrophages – imaging, THP-1 host macrophages, host toxicity (AID 1159564)
Details: measured here: THP-1 host cell toxicity
# key: entry, value: log10 IC50
In our notation, the value equals log10 of IC50 in µM.

// known answers, use as guide
N#Cc1nc(C=Cc2ccccc2)oc1NCc1cccnc1    1.51
Cc1ccnc(NS(=O)(=O)c2ccc(NC(=O)c3ccc([N+](=O)[O-])s3)cc2)n1    1.00
NC(=O)c1ccccc1Nc1nc(NC2CCCCC2)nc2[nH]ccc12    1.00
Cc1nc2c(-c3ncn[nH]3)cc(NC(=O)Cc3ccccc3)cn2c1C    0.90
Cc1cnc(Nc2cc(Cc3ccccc3)nc(NC3CCC(O)CC3)n2)s1 (stereo not given)    -1.60

Now let's try a different one.
Query: Reported log10 IC50 for CCNc1cc(-c2ccccn2)nc(Nc2ccc(OC)cc2)n1 : what is it?
Response: 1.40

###

# key: entry, value: pIC50
Tested on: L. donovani-infected THP-1 macrophages, intracellular amastigote imaging
Assay: antileishmanial activity in infected THP-1 macrophages – imaging, THP-1 host macrophages, host toxicity (AID 1159564)
Settings: measured here: THP-1 host cell toxicity
pIC50: −log10 of the molar value.

// known answers, use as guide
COc1ccc(-c2ccc3nnc(-c4ccc(O)c(OC)c4)n3c2)cn1    < 4.30
Cc1nn2c(NCCCO)c3c(nc2c1-c1cccs1)CCC3    < 4.30
COc1ccc(S(=O)(=O)Nc2ccc(C(=O)Nc3nc(-c4ccccn4)cs3)cc2)cc1    5.00
COc1ccc(C(C)(C)C)cc1S(=O)(=O)n1ccnc1    < 4.30
COc1cc(OC)cc(C(NS(=O)(=O)c2ccc(Cl)c(C(F)(F)F)c2)c2nccn2C)c1 (stereo unspecified)    < 4.30

Query: Give pIC50 (L. donovani-infected THP-1 macrophages, intracellular amastigote imaging) of the following compound: Cc1ccccc1OCC(=O)N1CCCN(c2cccnn2)CC1
Response: < 4.30

src = PubChem BioAssay AID1159564
